study target: Aryl hydrocarbon receptor (Homo sapiens) (UniProt P35869)
Sequence (P35869 whole entry, looked up): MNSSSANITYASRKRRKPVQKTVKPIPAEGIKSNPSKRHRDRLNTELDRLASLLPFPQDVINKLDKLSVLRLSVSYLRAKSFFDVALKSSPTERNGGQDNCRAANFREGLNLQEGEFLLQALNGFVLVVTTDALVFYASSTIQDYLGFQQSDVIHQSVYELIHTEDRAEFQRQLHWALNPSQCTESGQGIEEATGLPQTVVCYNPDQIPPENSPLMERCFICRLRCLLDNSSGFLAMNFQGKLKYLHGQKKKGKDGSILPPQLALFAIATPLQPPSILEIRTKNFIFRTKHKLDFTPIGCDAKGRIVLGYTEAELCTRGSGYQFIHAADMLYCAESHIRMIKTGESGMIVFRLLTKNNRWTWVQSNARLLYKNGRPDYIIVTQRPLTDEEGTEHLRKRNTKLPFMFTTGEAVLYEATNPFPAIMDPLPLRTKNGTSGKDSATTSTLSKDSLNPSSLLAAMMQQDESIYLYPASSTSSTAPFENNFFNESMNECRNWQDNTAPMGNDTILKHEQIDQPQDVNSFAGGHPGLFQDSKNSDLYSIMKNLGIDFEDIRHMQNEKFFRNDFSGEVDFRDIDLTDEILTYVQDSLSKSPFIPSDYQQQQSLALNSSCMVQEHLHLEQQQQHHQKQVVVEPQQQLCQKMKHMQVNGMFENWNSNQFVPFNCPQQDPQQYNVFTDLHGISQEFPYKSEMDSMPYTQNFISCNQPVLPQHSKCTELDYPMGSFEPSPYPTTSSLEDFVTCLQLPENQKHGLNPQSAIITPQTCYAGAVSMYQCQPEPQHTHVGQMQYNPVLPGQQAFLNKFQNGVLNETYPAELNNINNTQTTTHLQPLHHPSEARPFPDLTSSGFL
test protocol: qHTS assay to identify small molecule that activate the aryl hydrocarbon receptor (AhR) signaling pathway (AID 743085); further: nearly all actives have a fitted effect of over 15% in size;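 on activation: HG2L7.5c1 human HepG2 liver cells with stably integrated DRE-driven firefly reporter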
assay context: HepG2 AhR-luc (HG2L7.5c1), luciferase, 24 h; series mostly up to 70.3 µM
Source text: U.S. Tox21 Program National Center for Advancing Translational Sciences [NCATS] NIH Chemical Genomics Center [NCGC] U.S. Environmental Protection Agency [EPA] National Institutes of Environmental Health Sciences [NIEHS] National Toxicology Program [NTP] U.S. Food and Drug Administration [FDA] Tox21 Assay overview: The Aryl hydrocarbon Receptor (AhR), a member of the family of basic helix-loop-helix transcription factors, is crucial to adaptive responses to environmental changes. […]
Inconclusive results are not listed. The source made the active and inactive calls. The call rests on the fitted dose curve; in most records, active means well fitted activation curve with a large enough effect in the repeat runs; inconclusive means weak or mixed curves; inactive means no such curve, though single readings can be large or run the other way.
Bench note: report the call from yes (1) = active, no (0) = inactive

## Input Could you please tell me the result logged for CC(C)[C@@H](Nc1ccc(C(F)(F)F)cc1Cl)C(=O)OC(C#N)c1cccc(Oc2ccccc2)c1 (some centres undefined) in this assay?
## Output no (0)

## Input I would be grateful if you could indicate the recorded call for Cc1cccc(Cc2cnc[nH]2)c1C .
## Output yes (1)

## Input Assay outcome for CCCCC(CC)COC(=O)OOC(C)(C)C (centres undefined) : what was it?
## Output no (0)

## Input Please state the recorded outcome for this compound: C[C@H]1[C@H](c2ccc(Cl)cc2)SC(=O)N1C(=O)NC1CCCCC1
## Output no (0)

====

test protocol: qHTS assay to identify small molecule antagonists of the vitamin D receptor (VDR) signaling pathway - cell viability counter screen (AID 743225); further: nearly all actives have a fitted effect of over 50% in size
assay context: VDR-bla HEK293T viability, CellTiter-Glo luminescence, 16 h; series mostly up to 61 µM
Results filed as inconclusive are left out. The source made the active and inactive calls. Calls follow the shape of the dose curve; as a rule, active = well fitted cell-killing curve with a large enough effect in the repeat runs; inconclusive = weak or mixed curves, or effect the other way; inactive = no such curve, though single readings can be large or run the other way.
measured metric: outcome

Answered examples (10):
[
  {
    "molecule": "CN/C(=N\\[N+](=O)[O-])NCc1cnc(Cl)s1",
    "measured metric": "outcome",
    "value": "inactive"
  },
  {
    "molecule": "[C-]1=CC=CC1.[Cl][Zr+2][Cl].c1cc[cH-]c1",
    "measured metric": "outcome",
    "value": "inactive"
  },
  {
    "molecule": "COP(=S)(OC)Oc1ccc([N+](=O)[O-])c(C)c1",
    "measured metric": "outcome",
    "value": "inactive"
  },
  {
    "molecule": "O=S1OCC2C(CO1)C1(Cl)C(Cl)=C(Cl)C2(Cl)C1(Cl)Cl (stereo not drawn)",
    "measured metric": "outcome",
    "value": "inactive"
  },
  {
    "molecule": "O=C(O)[C@H](O)[C@@H](O)C(=O)O",
    "measured metric": "outcome",
    "value": "inactive"
  },
  {
    "molecule": "O=[N+]([O-])c1ccc(Cl)c(Cl)c1Cl",
    "measured metric": "outcome",
    "value": "inactive"
  },
  {
    "molecule": "Clc1ccc(C(Cl)(Cl)Cl)cc1Cl",
    "measured metric": "outcome",
    "value": "inactive"
  },
  {
    "molecule": "CCOP(=S)(NC(C)C)Oc1ccccc1C(=O)OC(C)C (stereo not drawn)",
    "measured metric": "outcome",
    "value": "inactive"
  },
  {
    "molecule": "N#CSCc1ccccc1",
    "measured metric": "outcome",
    "value": "inactive"
  },
  {
    "molecule": "CCOP(=S)(OCC)SC(CCl)N1C(=O)c2ccccc2C1=O (stereo not drawn)",
    "measured metric": "outcome",
    "value": "inactive"
  }
]

## Input Using the record for COc1ccc2[nH]cc(CCN(C(C)C)C(C)C)c2c1 , state its measured outcome.
## Output inactive

## Input Provide one value: measured outcome of CC1CCCC1
## Output inactive

## Input Output measured outcome for this item: COC(=O)c1cc(Oc2ccc(Cl)cc2Cl)ccc1[N+](=O)[O-]
## Output inactive

Origin of values: PubChem BioAssay (Tox21)
